# ASSAYED TARGET: AR protein (Homo sapiens)
# Sequence (P10275 whole entry): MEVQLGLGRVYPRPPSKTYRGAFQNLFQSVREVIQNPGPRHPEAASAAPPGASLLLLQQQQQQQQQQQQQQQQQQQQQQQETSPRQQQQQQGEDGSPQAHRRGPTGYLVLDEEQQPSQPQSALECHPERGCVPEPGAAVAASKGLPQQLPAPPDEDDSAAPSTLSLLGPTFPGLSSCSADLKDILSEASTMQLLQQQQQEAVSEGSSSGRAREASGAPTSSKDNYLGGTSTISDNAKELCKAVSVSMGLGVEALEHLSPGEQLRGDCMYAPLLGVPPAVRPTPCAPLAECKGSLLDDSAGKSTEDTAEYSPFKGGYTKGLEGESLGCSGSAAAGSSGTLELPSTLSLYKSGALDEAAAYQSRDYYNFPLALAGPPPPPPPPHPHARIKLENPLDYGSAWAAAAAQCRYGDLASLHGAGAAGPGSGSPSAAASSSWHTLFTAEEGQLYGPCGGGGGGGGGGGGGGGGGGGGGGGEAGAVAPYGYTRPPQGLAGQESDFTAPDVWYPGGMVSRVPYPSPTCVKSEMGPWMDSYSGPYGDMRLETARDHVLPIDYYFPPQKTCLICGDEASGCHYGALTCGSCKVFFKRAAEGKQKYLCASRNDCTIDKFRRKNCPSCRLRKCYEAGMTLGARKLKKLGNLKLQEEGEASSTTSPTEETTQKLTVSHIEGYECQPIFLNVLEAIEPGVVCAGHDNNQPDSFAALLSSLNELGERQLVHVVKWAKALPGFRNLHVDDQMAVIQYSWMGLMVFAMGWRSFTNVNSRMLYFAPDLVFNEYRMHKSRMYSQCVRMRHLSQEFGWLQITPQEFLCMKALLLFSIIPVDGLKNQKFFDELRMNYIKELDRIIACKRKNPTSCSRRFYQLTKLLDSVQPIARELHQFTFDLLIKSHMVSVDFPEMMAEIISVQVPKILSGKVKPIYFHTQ
# METHOD NOTES: AR degradation in VCaP cell line
# Assay type: cell-based
# CONDITIONS: VCaP, 1 h
QUANTITY MEASURED: reduction of AR protein level (degradation kinetics)

{"columns": ["MOLECULE", "VALUE"],
 "data": [
  ["CN(c1ccc(C#N)c(Cl)c1)[C@H]1CC[C@H](NC(=O)c2ccc(N3CCC(CN4CCN(c5ccc6c(c5)C(=O)N(C5CCC(=O)NC5=O)C6=O)CC4)CC3)cc2)CC1 (stereo partly drawn) [Compound 40]", "effectively reduce"],
  ["CN(c1ccc(C#N)c(Cl)c1)[C@H]1CC[C@H](NC(=O)c2ccc(N3CC(CN4CCN(c5ccc6c(c5)C(=O)N(C5CCC(=O)NC5=O)C6=O)CC4)C3)cc2)CC1 (stereo partly drawn) [Compound 44]", "effectively reduce"],
  ["CN(c1ccc(C#N)c(Cl)c1)[C@H]1CC[C@H](NC(=O)c2ccc(N3CC(N4CCN(c5ccc6c(c5)C(=O)N(C5CCC(=O)NC5=O)C6=O)CC4)C3)cc2)CC1 (stereo partly drawn) [Compound 45]", "effectively reduce"]
]}

---

# METHOD NOTES: Pharmacokinetics in mice
# Type: in vivo
# CONDITIONS: male, mouse, in vivo, iv, 1 mg/kg
QUANTITY MEASURED: clearance

For the molecule CN(c1ccc(C#N)c(Cl)c1)[C@H]1CC[C@H](NC(=O)c2ccc(N3CC(N4CCN(c5ccc6c(c5)C(=O)N(C5CCC(=O)NC5=O)C6=O)CC4)C3)cc2)CC1 (stereo partly shown) [Compound 45] , give its measured clearance value.
3.33 to 5 mL/min/kg

---

# METHOD NOTES: Pharmacokinetics in mice
# Type: in vivo
# CONDITIONS: male, mouse, in vivo, iv, 1 mg/kg
QUANTITY MEASURED: half-life

Kindly indicate its recorded half-life. Item: CN(c1ccc(C#N)c(Cl)c1)[C@H]1CC[C@H](NC(=O)c2ccc(N3CC(N4CCN(c5ccc6c(c5)C(=O)N(C5CCC(=O)NC5=O)C6=O)CC4)C3)cc2)CC1 (stereo partly shown) [Compound 45]
5.5 to 7.5 h

---

# METHOD NOTES: Pharmacokinetics in mice
# Assay type: in vivo
# CONDITIONS: male, mouse, in vivo, iv, 1 mg/kg
QUANTITY MEASURED: Vd

State its Vd for this compound: CN(c1ccc(C#N)c(Cl)c1)[C@H]1CC[C@H](NC(=O)c2ccc(N3CC(N4CCN(c5ccc6c(c5)C(=O)N(C5CCC(=O)NC5=O)C6=O)CC4)C3)cc2)CC1 (stereo partly shown)
1.8 to 2.1 L/kg

---

# METHOD NOTES: Tissue distribution studies of ARD-2585 in mice bearing VCaP tumors
# Format: in vivo
# CONDITIONS: male, SCID, mouse, prostate, po, 20 mg/kg
QUANTITY MEASURED: concentration at 24 h (ng/g)
Numeric answer only, unit ng/g assumed.

Consider the compound CN(c1ccc(C#N)c(Cl)c1)[C@H]1CC[C@H](NC(=O)c2ccc(N3CCN(C4CN(c5ccc6c(c5)C(=O)N(C5CCC(=O)NC5=O)C6=O)C4)CC3)cc2)CC1 (stereo partly shown) and give its recorded concentration at 24 h.
109

---

# METHOD NOTES: Pharmacokinetics in mice
# Type: in vivo
# CONDITIONS: male, mouse, plasma, iv, 1 mg/kg
QUANTITY MEASURED: clearance (mL/min/kg)
Numbers only here, please. The scale is mL/min/kg.

Determine from records and report clearance for N#Cc1ccc(O[C@H]2CC[C@H](NC(=O)c3ccc(N4CCC(N5CCN(c6ccc7c(c6)C(=O)N(C6CCC(=O)NC6=O)C7=O)CC5)CC4)cc3)CC2)cc1Cl (stereo partly drawn) [Compound 26]
6.67

For the compound CN(c1ccc(C#N)c(Cl)c1)[C@H]1CC[C@H](NC(=O)c2ccc(N3CCC(N4CCN(c5ccc6c(c5)C(=O)N(C5CCC(=O)NC5=O)C6=O)CC4)CC3)cc2)CC1 (stereo partly drawn) [Compound 35] , give its measured clearance value.
5

Provide measured clearance value, entry: CN(c1ccc(C#N)c(Cl)c1)[C@H]1CC[C@H](NC(=O)c2ccc(N3CC(N4CCN(c5ccc6c(c5)C(=O)N(C5CCC(=O)NC5=O)C6=O)CC4)C3)cc2)CC1 (stereo partly drawn) [Compound 45]
3.33
